The measurements presented in this section are drawn from the supplement of paper PMC9112550.

- Test system: Escherichia coli TOP10
- ASSAY_INFO: shrunken log2 fold change of peptide-encoding DNA abundance (4.5 h post-induction vs induction); higher = less antimicrobial activity (less host growth inhibition)
- CONDITION_SUMMARY: time post-induction: 4.5 h; library: site-saturation at positions 5, 18, 19, 20
Class (required): determined from shrunken log2 fold change; valid ranges are bottom end = under -0.05, midrange = from -0.05 up to 0.05, top end = 0.05 and over

Below, 3 sequences whose answers are already recorded.
RRIRNRPPRLPRPRPRPEGLPRP    top end
RRIRFRPPRLPRPRPRPHHFPRP    bottom end
RRIRSRPPRLPRPRPRPATYPRP    bottom end

Input line: Hi there! Could you help me figure out the category for `RRIRDRPPRLPRPRPRPFNEPRP` please?
Output line: midrange

Input line: Try this sequence next: `RRIRDRPPRLPRPRPRPHPMPRP`
Output line: midrange

Input line: Try this sequence next: `RRIRRRPPRLPRPRPRPCYYPRP`
Output line: midrange

Input line: Try this sequence next: `RRIRRRPPRLPRPRPRPRLHPRP`
Output line: top end

Input line: Try this sequence next: `RRIRMRPPRLPRPRPRPKLEPRP`
Output line: top end

Input line: Try this sequence next: `RRIRQRPPRLPRPRPRPYRWPRP`
Output line: midrange

Input line: Try this sequence next: `RRIRARPPRLPRPRPRPTFIPRP`
Output line: bottom end

----------
- System: Escherichia coli TOP10
- ASSAY_INFO: shrunken log2 fold change of peptide-encoding DNA abundance (4.5 h post-induction vs induction); higher = less antimicrobial activity (less host growth inhibition)
- CONDITION_SUMMARY: time post-induction: 4.5 h; library: site-saturation at positions 5, 18, 19, 20
READOUT_LABEL: shrunken log2 fold change
Please give only the number in your answer, with no unit.

RRIRPRPPRLPRPRPRPIIFPRP    -0.0799

Input line: Field request: shrunken log2 fold change | item: `RRIRKRPPRLPRPRPRPKDYPRP`
Output line: -0.0531

Input line: Try this sequence next: `RRIRQRPPRLPRPRPRPPQCPRP`
Output line: 0.114

Input line: Try this sequence next: `RRIRPRPPRLPRPRPRPQCHPRP`
Output line: -0.457

Input line: Try this sequence next: `RRIRVRPPRLPRPRPRPQCIPRP`
Output line: 0.101

Input line: Try this sequence next: `RRIRFRPPRLPRPRPRPIGPPRP`
Output line: 0.0274

Input line: Try this sequence next: `RRIRQRPPRLPRPRPRPHGIPRP`
Output line: 0.179

----------
Entries annotated with measured shrunken log2 fold change
- Test system: Escherichia coli TOP10;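 note: peptides expressed intracellularly from a pBAD plasmid library in pooled LB shake-flask culture, induced with 0.3% L-arabinose, DNA abundance read by NGS, three biological replicates, DESeq2 with apeglm shrinkage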
- ASSAY_INFO: shrunken log2 fold change of peptide-encoding DNA abundance (4.5 h post-induction vs induction); higher = less antimicrobial activity (less host growth inhibition)
- CONDITION_SUMMARY: time post-induction: 4.5 h; library: site-saturation at positions 5, 18, 19, 20

Consider the following illustrative entries.
RRIRDRPPRLPRPRPRPGKEPRP    -0.0214
RRIRGRPPRLPRPRPRPTHEPRP    1.34

Input line: Field request: shrunken log2 fold change | item: `RRIRMRPPRLPRPRPRPKANPRP`
Output line: 1.96

Input line: Try this sequence next: `RRIRTRPPRLPRPRPRPSFRPRP`
Output line: -1.02

Input line: Try this sequence next: `RRIRVRPPRLPRPRPRPKPYPRP`
Output line: 0.0131

Input line: Try this sequence next: `RRIRSRPPRLPRPRPRPVDAPRP`
Output line: 0.0786

Input line: Try this sequence next: `RRIRLRPPRLPRPRPRPSEQPRP`
Output line: -0.153

Input line: Try this sequence next: `RRIRCRPPRLPRPRPRPTDGPRP`
Output line: -0.116

Input line: Try this sequence next: `RRIRDRPPRLPRPRPRPRGFPRP`
Output line: 0.586

Input line: Try this sequence next: `RRIRWRPPRLPRPRPRPRYWPRP`
Output line: 0.185

Input line: Try this sequence next: `RRIRMRPPRLPRPRPRPNLDPRP`
Output line: 0.00884

Input line: Try this sequence next: `RRIRRRPPRLPRPRPRPNSSPRP`
Output line: 0.105

Input line: Try this sequence next: `RRIRHRPPRLPRPRPRPREFPRP`
Output line: 0.0275
